Origin of measurements: PubChem BioAssay AID623877

Molecular target: Anoctamin-1 (Mus musculus) (UniProt Q8BHY3)
Sequence (Q8BHY3 whole entry, looked up): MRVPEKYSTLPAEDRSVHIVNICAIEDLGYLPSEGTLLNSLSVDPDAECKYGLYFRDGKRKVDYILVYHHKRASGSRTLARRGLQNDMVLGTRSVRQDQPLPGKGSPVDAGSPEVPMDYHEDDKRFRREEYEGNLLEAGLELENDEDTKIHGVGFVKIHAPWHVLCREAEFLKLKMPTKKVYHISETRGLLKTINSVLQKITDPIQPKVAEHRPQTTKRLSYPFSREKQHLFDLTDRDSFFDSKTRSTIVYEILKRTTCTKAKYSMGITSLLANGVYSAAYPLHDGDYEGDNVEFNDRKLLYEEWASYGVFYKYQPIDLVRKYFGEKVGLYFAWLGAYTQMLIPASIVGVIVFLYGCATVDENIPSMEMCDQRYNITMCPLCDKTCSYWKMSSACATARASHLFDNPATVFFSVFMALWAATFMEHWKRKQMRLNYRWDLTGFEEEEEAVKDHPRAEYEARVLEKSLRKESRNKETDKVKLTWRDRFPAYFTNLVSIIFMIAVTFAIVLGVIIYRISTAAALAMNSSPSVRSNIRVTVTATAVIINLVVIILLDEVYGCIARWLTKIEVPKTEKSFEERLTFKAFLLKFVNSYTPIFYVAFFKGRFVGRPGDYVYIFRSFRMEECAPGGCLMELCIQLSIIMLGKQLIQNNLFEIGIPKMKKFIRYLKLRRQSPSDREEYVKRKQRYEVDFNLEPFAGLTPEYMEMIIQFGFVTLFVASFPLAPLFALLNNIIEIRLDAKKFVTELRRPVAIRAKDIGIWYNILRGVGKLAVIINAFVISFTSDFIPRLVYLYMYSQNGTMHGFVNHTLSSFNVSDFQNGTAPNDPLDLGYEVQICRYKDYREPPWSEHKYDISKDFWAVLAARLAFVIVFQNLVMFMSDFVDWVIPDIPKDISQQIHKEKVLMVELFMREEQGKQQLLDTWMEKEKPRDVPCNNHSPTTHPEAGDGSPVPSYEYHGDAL
Experiment: mouse ANO1 channel activation – cell-based, HTS, primary screen (AID 623877)
Conditions: HEK293 TMEM16A/YFP-H148Q/I152L, iodide quench fluorescence, at 10 µM
The campaign covered roughly 340,000 compounds. About 1,000 (0.29%) were called active.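 Rule for the calls: active = fluorescence-ratio B-score plate-corrected deviation score at least 3 library SD below zero, with starting fluorescence score within 5 deviations; inactive = the rest.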 Only a selection was taken, and actives are over-represented in it overall.
Labels: yes for active, no for inactive

Molecule	Class Assignment
C#CCOCCOCCOCCNc1nc(N2CCN(C(=O)Cn3cc(CCO)nn3)CC2)nc(N2CCN(C(=O)Cn3cc(CCCN=C(N)N)nn3)CC2)n1	no
C#CCOCCOCCOCCNc1nc(N2CCN(C(=O)[C@H](C(C)C)n3cc(CCO)nn3)CC2)nc(N2CCN(C(=O)[C@H]([C@@H](C)CC)n3cc(CCCN=C(N)N)nn3)CC2)n1	no
C#CCOCCOCCOCCNc1nc(N2CCN(C(=O)Cn3cc(CCCCN)nn3)CC2)nc(N2CCN(C(=O)[C@H](CCCCN)n3cc(CCC(=O)O)nn3)CC2)n1	no
CCN1CCN(C(=O)C2CCCN(S(=O)(=O)c3ccc(OC)c(OC)c3)C2)CC1 (configuration not stated)	no
CN(c1ccc(OCC(=O)OCC(=O)Nc2cccc([N+](=O)[O-])c2)cc1)S(=O)(=O)c1ccc(F)cc1	no
C=CCN(CC=C)CCOc1ccccc1[N+](=O)[O-]	no
N#CCSc1nn(-c2ccc(F)cc2)c(=S)s1	no
C#CCOCCOCCOCCNc1nc(N2CCN(C(=O)CCCCCCCCCCNC(=O)[C@H](CCCCN)n3cc(C)nn3)CC2)nc(N2CCN(C(=O)CCCCCCCCCCNC(=O)[C@H](CO)n3cc(CCCSC)nn3)CC2)n1	yes
C#CCOCCOCCOCCNc1nc(N2CCN(C(=O)CCCCCCCCCCNC(=O)[C@H]([C@@H](C)CC)n3cc(CCCCN=C(N)N)nn3)CC2)nc(N2CCN(C(=O)CCCCCCCCCCNC(=O)[C@H](CO)n3cc(CCCSC)nn3)CC2)n1	yes
CCOC(=O)CNC(=O)CN1C(=O)CCSc2ccccc21	no
Cc1ccc(CSCC(=O)N(C)CC(=O)Nc2ccc(C)cc2)cc1	no
Cc1cc(C)n2nc(C(=O)N(C)C(c3ccccc3)c3ccccc3)nc2n1	no
CC(C)c1nc2oc3c(N4CCN(C)CC4)ncnc3c2c2c1CCC2	no
O=S(=O)(NC(=S)Nc1ccccc1)c1ccc(F)cc1	no
O=c1[nH]c(=S)[nH]c(O)c1/C=C1\C=Nc2ccccc21	no
Cc1ccc(OCCCC(=O)Nc2ccc3c(c2)OCCO3)cc1	no
O=C(Nc1ccccc1-c1nnn(CC(=O)N2CCN(c3ccccc3)CC2)n1)c1cccs1	no

----------
Target: Anoctamin-1 (Mus musculus) (UniProt Q8BHY3)
Experiment: mouse ANO1 channel activation – cell-based, HTS, primary screen (AID 623877)
Conditions: HEK293 TMEM16A/YFP-H148Q/I152L, iodide quench fluorescence, at 10 µM
The whole screen tested about 340,000 compounds, of which about 1,000 (0.29%) were called active.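 The calls were made as follows: active = fluorescence-ratio B-score plate-corrected deviation score at least 3 library SD below zero, with starting fluorescence score within 5 deviations; inactive = the rest.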 What follows is part of a selection rich in actives, with near analogues and random picks from the rest.
Labels: T = active, F = inactive

Compound	Measured On	Class Assignment
COc1ccc(NC(C(=O)Nc2cccc(C(C)=O)c2)c2ccccc2)cc1 (stereo not drawn)	Anoctamin-1 (Mus musculus) (UniProt Q8BHY3)	F
Cc1noc(C)c1S(=O)(=O)NCCc1ccc(S(N)(=O)=O)cc1	Anoctamin-1 (Mus musculus) (UniProt Q8BHY3)	F
Cc1cc(C)cc(NC(=O)CN2C(=O)c3ccccc3C2=O)c1	Anoctamin-1 (Mus musculus) (UniProt Q8BHY3)	F
COc1ccc(C(=O)OCC(=O)NCC2CCCCC2)cc1S(=O)(=O)N1CCCc2ccccc21	Anoctamin-1 (Mus musculus) (UniProt Q8BHY3)	F
Cn1c(=O)n(C)c2cc(S(=O)(=O)N3CCCc4ccccc43)ccc21	Anoctamin-1 (Mus musculus) (UniProt Q8BHY3)	F
COc1ccc(-c2onc3ccc(C(C)=O)cc23)cc1	Anoctamin-1 (Mus musculus) (UniProt Q8BHY3)	T
O=C1C(=O)N(c2ccccc2)c2ccccc21	Anoctamin-1 (Mus musculus) (UniProt Q8BHY3)	F
O=C(C(Cl)Cl)N1CCN(c2ccccn2)CC1	Anoctamin-1 (Mus musculus) (UniProt Q8BHY3)	F
COC(=O)C[n+]1cccc2ccccc21	Anoctamin-1 (Mus musculus) (UniProt Q8BHY3)	T
O=C(Nc1cccc(Cl)c1)C1CCCN(c2cnccn2)C1 (stereo not drawn)	Anoctamin-1 (Mus musculus) (UniProt Q8BHY3)	F
CCn1cc(CNC(=O)c2cc([N+](=O)[O-])c(C)c([N+](=O)[O-])c2)cn1	Anoctamin-1 (Mus musculus) (UniProt Q8BHY3)	F
O=C1c2cccc3cccc(c23)N1CN1CCN(c2ccccn2)CC1	Anoctamin-1 (Mus musculus) (UniProt Q8BHY3)	F
O=C(c1ccc2c(c1)C(=O)N(c1ccc(Cl)cc1)C2=O)N1CCN(c2ccccn2)CC1	Anoctamin-1 (Mus musculus) (UniProt Q8BHY3)	F
